Listed here are sequences together with their documented apparent KD of MS2 coat protein.
Tested on: MS2 coat protein
protocol.details: apparent KD of MS2 coat protein; designed switch direction (-1 OFF switch, 1 ON switch): -1; higher = weaker reporter binding
test.settings: input ligand: FMN 200 uM
experimental.endpoint: apparent KD of MS2 coat protein (nM)

>  <query.sequence>
GACUGACAUGAGGAUCACCCAUGUAAGGAUAUAGGGAACGUCGUUCCGCAACCCGCGCCUAGAAGGUACAAGGU [EX1 C.11] (Eterna round: R97, puzzle: Exclusion 1)

>  <unit.info>
nM

>  <value>
18.2

$$$$
>  <query.sequence>
AGCCCUGCAGGAUAUGCCCGGGAUAACAUGAGGAUCACCCAUGUGACUGAUUGUUAUCCUGCAGAAGGGCAUGGGA [JL-EX5-4.13 ViennaUCT mod] (Eterna round: R97, puzzle: Exclusion 5)

>  <unit.info>
nM

>  <value>
547

$$$$
>  <query.sequence>
AGCCAAGCAGGAUAUGCCCGGGAUAACAUGAGGAUCACCCAUGUGACCGAUUGAUGUCCUGCAGAAGGGCUUGGGA [Mod of ViennaUCT - Jieux - Exclusion 5] (Eterna round: R97, puzzle: Exclusion 5)

>  <unit.info>
nM

>  <value>
83.2

$$$$

###

Catalogue of apparent KD of K4 kissing-loop reporter values
System: K4 kissing-loop RNA reporter;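 further: bound reporter read as fluorescence of individual clusters on recovered sequencing chips by microscopy, with normalized cluster intensities fitted with a binding model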
protocol.details: apparent KD of K4 kissing-loop reporter; higher = weaker reporter binding
test.settings: Eterna round: R107; input ligand: none
experimental.endpoint: apparent KD of K4 kissing-loop reporter (nM)

>  <query.sequence>
ACCUACCAUUAGUGAUGUUAAUGGACGGAAGGAGCGCGGAUAUCCGCAGGUAGGUCGCCGAAGGCUAGACAUUGUCUAGCCAUUA [AK1.2 SS Arginine A]

>  <value>
196

$$$$
>  <query.sequence>
GCCGUACGCAUGGAUACCAGACAACCAUUCUAAAUUUUGUGUCCGGUAGUGAUGUUACCUGUCCCUUGGCAGCCAUGCGUACGGC

>  <value>
319

$$$$
>  <query.sequence>
AAAACGCUGUGAAUAACACAGCGAAAUUCGCGAGGACCGGUACGGCCGCCACUCGCUAACUGCGAGUGAUGUUCGAUAAUAAAAU [Mat - Mod of OpenEnded 3 - D3]

>  <value>
170

$$$$
>  <query.sequence>
GGAUCCACCAGUGAUGUUGGAGAAAACUUCAAGGAUAUGACGAAAGUCAGAAGGUGGUAGACUGGUCAAAGUCCGGUCGGAUCCA [FmnA10 U29+U66]

>  <value>
459

$$$$

###

In this section we review reported apparent KD of MS2 coat protein values for a set of sequences.
System: MS2 coat protein
protocol.details: apparent KD of MS2 coat protein; designed switch direction (-1 OFF switch, 1 ON switch): -1; higher = weaker reporter binding
test.settings: input ligand: microRNA oligo, concentration not stated
experimental.endpoint: apparent KD of MS2 coat protein

>  <query.sequence>
GCCCGGCGUGUAGGAUAUGGUUCCGUUUCGGUUCCAGAAGGACAUGAGGAUCACCCAUGUGCCUGUCGUCGGUCGUCACCGGGC [salish99_ExNG1_r04_401] (Eterna round: R96, puzzle: Exclusion NG 1)

>  <experimental.endpoint>
apparent KD of MS2 coat protein

>  <value>
9.87 nM

$$$$
>  <query.sequence>
UAAAUGCUGCGAGGAUAUACAUGAGGAUCACCCAUGUGGAUGUCUGAGGCUUUGCCUCAGACGAUGUAGAAGGCGCAGUAAAAU [Mat - Exclusion NG 2 - Mod of JL - D52] (Eterna round: R96, puzzle: Exclusion NG 2)

>  <experimental.endpoint>
apparent KD of MS2 coat protein

>  <value>
15.7 nM

$$$$
>  <query.sequence>
GUCAGCUCGUCAGGAUAUACAUGCGUGCUUCGGCACGUAUGAUAGAUCACAUGAGGAUCACCCAUGUAGAAGGGACGAGCUGAC [ENG2/4-B1] (Eterna round: R96, puzzle: Exclusion NG 2)

>  <experimental.endpoint>
apparent KD of MS2 coat protein

>  <value>
9.92 nM

$$$$

###

A collection of sequences and their measured apparent KD of MS2 coat protein
System: MS2 coat protein
protocol.details: apparent KD of MS2 coat protein; designed switch direction (-1 OFF switch, 1 ON switch): 1; higher = weaker reporter binding
test.settings: Eterna round: R95; input ligand: FMN 200 uM
experimental.endpoint: apparent KD of MS2 coat protein (nM)

>  <query.sequence>
GUGCAACCGUGUGAGGAUAUCGGUGGUAAAACAUGAGGAUCACCCAUGUCCGAAGCUCGGACCUCCGAGAAGGCGCACAGUUGCA [Same State 2 - Mod of Erisin v.1] (puzzle: Same State 2)

>  <value>
6.82

$$$$
>  <query.sequence>
AGCUAUCGAAAACGAUAGCAAAAGCAUGUACAUGAGGAUCACCCAUGUCAUGUACAAGCUUUUUGCUCGUUUUAAAA [Zipper 23 - 15] (puzzle: Sensor for hsa-mir-208a)

>  <value>
20.1

$$$$
>  <query.sequence>
UCUUGGUUUUUGCUCGUUUUUUGUGUUGAACAUGAGGAUCACCCAUGUAUUGUACAGUCCAGUUUAAUAAUGGUCCA [JMF 5] (puzzle: Sensor for hsa-mir-208a)

>  <value>
33.9

$$$$
>  <query.sequence>
GGUCCAGCCUGAGCUGGACGAUAGUAUGUACAUGAGGAUCACCCAUGUCAUGUAUAAGUAUUUUGUUUGUCUUGAAA [Sensorship 3 - Jieux - Sensor for hsa-mir-208a] (puzzle: Sensor for hsa-mir-208a)

>  <value>
22.1

$$$$

###

Tested on: MS2 coat protein
protocol.details: apparent KD of MS2 coat protein, switch ON state; designed switch direction (-1 OFF switch, 1 ON switch): 1; higher = weaker reporter binding
test.settings: FMN input: 0 or 200 uM; Eterna round: R93 (includes R88 designs)
Cut-off 20 nM on apparent KD of MS2 coat protein, inclusive. At or above means yes; below means no.

>  <query.sequence>
GAAAAACAUGAGGAUCACCCAUGUAGAAAUAUGGGAGGAUAUACAAAGACGAAAGUCAAAGUAGAAGGCCUAAAAG [Mat - Mod of Eli]

>  <assigned.category>
yes

$$$$
>  <query.sequence>
AAAAAAAAAACUCAGGAUAUAGAUCGUUGAACAUGAGGAUCACCCAUGUAGUGAAAAGCGAAAAACUAGAAGGGAGGAAAAAAAAA [SameState2-02]

>  <assigned.category>
no

$$$$
>  <query.sequence>
AACUAACAUGAGGAUCACCCAUGUAUUCAAACAUGAGGAUAUAUAACACAUCAUCGACAGAUAGAAGGCAUAAAUA [JR_SS001_Sub1205]

>  <assigned.category>
yes

$$$$
>  <query.sequence>
AUAAAACAUGAGGAUCACCCAUGUAGCUAAAGCACAGGAUAUAGGAGUCCGAGCAGACAUCUAGAAGGGUGGAAAA [Veeslelein]

>  <assigned.category>
yes

$$$$
>  <query.sequence>
AAAAUAAAAUAAAAGGAUAUAAAGAUAUAUACAUGAGGAUCACCCAUGUAUAUAUCAAUAAAAUAAAAGAAGGAAUAAAAAUAAA [SS2 510: MS2 10]

>  <assigned.category>
no

$$$$

###

Test system: MS2 coat protein
protocol.details: apparent KD of MS2 coat protein; designed switch direction (-1 OFF switch, 1 ON switch): -1; higher = weaker reporter binding
test.settings: input ligand: none
In this section we review reported apparent KD of MS2 coat protein values for a set of sequences.
experimental.endpoint: apparent KD of MS2 coat protein (nM)

>  <query.sequence>
UGCCGUUGAGGAUAUACGUAGAAAUAGAUUCAUGUAAAACUACAUGAGGAUCACCCAUGUAGAAGGCAAUGGCU [Mat - Exclusion 2 - JL Mod - D47] (Eterna round: R97, puzzle: Exclusion 2)

>  <unit.info>
nM

>  <value>
24.4

$$$$
>  <query.sequence>
UUUUUAUAUGAAGGAUAUACUUAACAUGAGGAUCACCCAUGUGGUGUUGUGAGUGAGUGAGUUUAGUAGAAGGUCAAGUCUUUU [JMF's solution 36] (Eterna round: R96, puzzle: Exclusion NG 2)

>  <unit.info>
nM

>  <value>
361

$$$$
>  <query.sequence>
GGUGAAGCAGGAUAUGUAUCGGCAUACAUGAGGAUCACCCAUGUCAUGUAGAUACCGCAUAUAGAAGGGCUUCACC [Exclusion 5 (FMN-MS2 slide v.5)] (Eterna round: R97, puzzle: Exclusion 5)

>  <unit.info>
nM

>  <value>
16.9

$$$$
>  <query.sequence>
CUGAAGGUGCAGGAUAUCCUGAAUAAGGGUUCAGGAGAAGGGCACACAUGAGGAUCACCCAUGUUAAUACUGCU [Eternabot (L2) Solution 54] (Eterna round: R97, puzzle: Exclusion 6)

>  <unit.info>
nM

>  <value>
39.1

$$$$
>  <query.sequence>
CAACCUCACGAGGAUAUCAAUGCUAGUUGGCGUUGAGAAGGCGUAACAUGAGGAUCACCCAUGUGGUGGCGUAU [Eternabot (Original) Solution 26] (Eterna round: R97, puzzle: Exclusion 6)

>  <unit.info>
nM

>  <value>
921

$$$$
>  <query.sequence>
AAAUUUGGAGGAUAUCCAUUGGGAAACAUGAGGAUCACCCAUGUAAUAAAAGGGAAAUCCGGAGAAGGCCAAAUUU [-20.39, -19.1 kcal, 39% A] (Eterna round: R97, puzzle: Exclusion 5)

>  <unit.info>
nM

>  <value>
19.1

$$$$
>  <query.sequence>
UUUGCAAGCUUUAGAUCCCACAUGAGGAUCACCCAUGUUGCUGCCGUGAGGUAGCUUUUAACUAAUGCUCGUCUUAU [JL TOV1 3.45] (Eterna round: R97, puzzle: Sensor, turn-off variant 1)

>  <unit.info>
nM

>  <value>
163

$$$$
>  <query.sequence>
UUGGUUGGUGUAGGAUAUGUAUGAGGAUCACCCAUUAAUAAAUUUUAACCACGAGGAUCACCCGUGUAGAAGGACAUUGGUUAU [pwkr exNG2 2xF5 1xFMN.22] (Eterna round: R96, puzzle: Exclusion NG 2)

>  <unit.info>
nM

>  <value>
57.4

$$$$
>  <query.sequence>
CGGAGACAUGAGGAUCACCCAUGUGAGGAUAUGGCGUGCGCUACUAAAGGUGGUUGCUCCAGAAGGCGCGGUGU [Eternabot (L1) Solution 3] (Eterna round: R97, puzzle: Exclusion 1)

>  <unit.info>
nM

>  <value>
65.2

$$$$
